System: Apc [+/−] 1638NCOL cells
Test summary: Cytostatic growth arrest (cell population doubling)
Format: cell-based, mouse
Condition description: 1 μM, mean ± SD, n = 3
Property label: No. of population doublings

| Compound | Experimental result |
| --- | --- |
| CC/C(=C(\c1ccccc1)c1ccc(OCCN(C)C)cc1)c1ccccc1 [TAM, Tamoxifen] | 7.6 |
| NCCCNCCSP(=O)(O)O [AMF, Amifostine] | 8.2 |
| CC1=C(CC(=O)O)c2cc(F)ccc2/C1=C\c1ccc([S+](C)[O-])cc1 (centres unmarked) [SUL, Sulindac] | 7.6 |
| Cc1c(-c2cnccn2)ssc1=S [OLT, Oltipraz] | 10.7 |
| CC1=C(/C=C/C(C)=C\C=C\C(C)=C\C(=O)O)C(C)(C)CCC1 [Agent 9cisRA, 9cis retinoic acid] | 6.7 |
